Assay: in vitro
Format: cell-based
Conditions: human; U1 cells, all concentrations (0-2.5 mM); read-out: cellular growth, of the untreated control
attribute.measured: activity

The reported activity of the compound NC[C@@H]1O[C@H](O[C@H]2[C@@H](O)[C@H](O[C@@H]3[C@@H](O)[C@H](N)C[C@H](N)[C@H]3O[C@H]3O[C@H](CN)[C@@H](O)[C@H](O)[C@H]3N)O[C@@H]2CO)[C@H](N)[C@@H](O)[C@@H]1O was 94 to 108%

----------
Target: binding of HIV Rev protein to the HIV RRE (Human immunodeficiency virus type 1 group M subtype B, UniProt P04618)
Construct: made in house; host or cells: E. coli
Sequence (P04618 whole entry, looked up): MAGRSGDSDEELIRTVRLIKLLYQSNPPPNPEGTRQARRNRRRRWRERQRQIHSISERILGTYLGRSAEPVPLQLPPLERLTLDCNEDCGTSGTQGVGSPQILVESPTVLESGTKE
Experiment: Rev-RRE nitrocellulose filter-binding assay
Settings: FIG. 2; 150 mM KCl, 100-fold molar excess of tRNA; read-out: IC50 (concentration required to inhibit 50% Rev-RRE binding)
attribute.measured: pIC50
The read-out pIC50 is expressed as -log10 of concentration in moles per litre.

# pIC50 (compound: CN(C)CCCNC(=N)c1cccc(-c2ccc(-c3cccc(C(=N)NCCCN(C)C)c3)o2)c1 ) is 6.00
